- System: SK-MEL-28
- protocol description: NCI tumour cell line growth inhibition, 48 h
Activity calls are given as the source filed them. Rule as the data show it: active = GI50 up to about 1.1 µM and inactive = higher. *1 amine or outer side, *2 acyl side, *3 side chain or, on linkers, in order; H or OH if unused. Where a SMILES comes first, the peptide text is derived from it. Bridges are numbered along the chain shown (N, C = ends). Roman numbers before positions name the chains, in order. Peptide text beside a SMILES is read from it. [ ]: non-standard residue; d: D form. * marks the point of attachment. Actinocin(9to1) = Cc1c2oc3c(C)ccc(C(=O)[*:1])c3nc-2c(C(=O)[*:2])c(N)c1=O; NMeV = CN[CH](C(=O)O)C(C)C; Boc = CC(C)(C)OC(=O)*; Sar = CNCC(=O)O
Labels: active, inactive

molecule	group label
O=C1C=C(c2[nH]c3ccccc3c2C2=CC(=O)c3ccccc3C2=O)C(=O)c2ccccc21	inactive
O=C(O)C1=CNC(C(=O)O)=NN1	inactive
O=c1c2nc[nH]c2n(-c2ccccc2)c(=S)n1-c1ccccc1	inactive
Fc1ccc2c(c1)SC1=Nc3sc4cc(F)ccc4[n+]3CN12	inactive
CC1=C2C(=O)O[C@@H](c3ccoc3)[C@]2(C)CCC1=O	inactive
O=C(N/N=C/c1ccccc1)c1c(F)c(F)c(F)c(F)c1F	inactive
CC(NC(=O)OC(C)(C)C)C(=O)NC(Cc1ccccc1)C(=O)NCC(=O)O (stereo not drawn) (Boc-Ala-Phe-Gly-OH; configuration not given here)	inactive
CC12CCC(=O)N1c1cccnc1N2 (stereo not drawn)	inactive
COc1c(O)ccc(/C=N/NC(=S)NCOCCOC(C)=O)c1OC	inactive
Cc1cc(=O)n(-c2ccccc2C)c(C)n1	inactive
O=C(c1ccccc1)c1c(CNCc2ccccc2)n(C(=O)c2ccccc2)c2ccccc12	inactive
Cc1c2oc3c(C)ccc(C(=O)NC4C(=O)NC(C(C)C)C(=O)N5CCCC5C(=O)N(C)CC(=O)N(C)C(C(C)C)C(=O)OC4C)c3nc-2c(C(=O)NC2C(=O)NC(C(C)C)C(=O)N3CCCC3C(=O)N(C)CC(=O)N(C)C(C(C)C)C(=O)OC2C)c(N)c1=O (stereo not drawn) (I: TVP[Sar][NMeV] / II: TVP[Sar][NMeV]; ester I:1-I:C, II:1-II:C; linker I:N-II:N via Actinocin(9to1); configuration not given here)	active
CC1=Nc2ccccc2S(=O)(=O)N1	inactive
O/N=C(/CC(O)(C(F)(F)F)C(F)(F)F)c1ccccc1	inactive
N#CC1(C#N)C(C#N)(C#N)C1(C#N)C(N)=O	inactive
Cc1cc(Cl)ccc1NC(=O)C1C(=O)N(c2ccc(Cl)cc2C)C(=O)/C1=N\NC(N)=S (stereo not drawn)	inactive
COCc1nc2c(OC)c(-c3nc4ccc(N5CCN(C)CC5)cc4[nH]3)cc(OC)c2[nH]1	inactive
CC(=O)Nc1ccc(C(=O)NN2C(=O)C(Cl)C2c2ccccc2O)cc1 (stereo not drawn)	inactive

Entry source: ChEMBL document CHEMBL1201862
